test system: common groundsel; assay: Test F preemergence test; type: in vivo, Senecio vulgaris; settings: 62 g ai/ha, Preemergence; scale 0 to 100
Exercise: state measured Groundsel plant response rating for each of the compounds provided.
Write the value as a bare number.

Just so you know, measured Groundsel plant response rating for Cn1nc(OC(F)F)c(CS(=O)(=O)c2cccc[n+]2[O-])c1C(F)(F)F came out at 0

get_value(item= CCn1nc(C(F)(F)F)c(C[S+]([O-])c2cc(C)cc[n+]2[O-])c1OCC(F)(F)F (racemic) , readout=Groundsel plant response rating) returns 80

compound CCc1cc[n+]([O-])c(S(=O)(=O)Cc2c(C(F)(F)F)nn(C)c2OCC(F)(F)F)c1 , Groundsel plant response rating observed: 60

Noted for Cn1nc(C(F)(F)F)c(C[S+]([O-])c2ccc(Cl)c[n+]2[O-])c1OCC(F)(F)F (racemic) : its Groundsel plant response rating reads 80

Item: Cn1nc(C(F)(F)F)c(C[S+]([O-])c2ccc(F)c[n+]2[O-])c1OC(F)F (stereo not drawn) | Groundsel plant response rating: 60

The compound identified as Cc1cc[n+]([O-])c(S(=O)(=O)C(C)c2c(C(F)(F)F)nn(C)c2OC(F)F)c1 (stereo not drawn) registered its Groundsel plant response rating at 95
